The origin of these recorded values is patent US20230278972A1.

system: barnyardgrass (Echinochloa crus-galli); assay: Test A postemergence, barnyardgrass; assay type: in vivo; details: Echinochloa crus-galli, post-emergence, 240 h; Postemergence, 500 g ai/ha; visual injury vs untreated controls after approx. 10 days; 0 to 100 scale (0 no effect, 100 complete control); read-out: Barnyardgrass plant response rating
Measured endpoint: pest or weed control at 500 g/ha (%)

1. Cc1cc(C)c(C2=NO[C@@H]3CCC[C@H]23)cc1NS(=O)(=O)C(F)(F)F :: 90
2. Cc1c(NS(=O)(=O)C(F)(F)F)cc(C(=O)N(C)C)c(C)c1F :: 90
3. Cc1cc(C)c(C2=NOC3COCCC23)cc1NS(=O)(=O)C(F)(F)F (centres unmarked) :: 90
4. Cc1cc(C)c(N(COC(=O)C(C)(C)C)S(=O)(=O)C(F)(F)F)cc1C1=NOC2(CCCCC2)C1 :: 80
5. Cc1cc(C)c(N(COC(=O)C(C)(C)C)S(=O)(=O)C(F)(F)F)cc1C1=NOC2(CCCC2)C1 :: 90
